Below, each entry is listed with its recorded CC50.
Test: Cytotoxicity assay (MTS) on non-infected RAW 264.7 cells
Format: cell-based
Conditions: mouse, non-infected RAW 264.7 cells, cytotoxic concentration to induce 50% death of non-infected RAW 264.7 cells; read-out: MNV CC50 ± SD

[
  {
    "cpd smiles": "Cc1cc(C)cc(S(=O)(=O)c2c(C(=O)NCCc3ccc(O)cc3)[nH]c3ccc(Cl)cc23)c1",
    "comparison operator": "=",
    "CC50 [µM]": 8.49
  },
  {
    "cpd smiles": "Cc1cc(C)cc(S(=O)(=O)c2c(C(=O)Nc3ccc(CO)cc3)[nH]c3ccc(Cl)cc23)c1",
    "comparison operator": ">",
    "CC50 [µM]": 100
  },
  {
    "cpd smiles": "Cc1cc(C)cc(S(=O)(=O)c2c(C(=O)NCCO)[nH]c3ccc(Cl)cc23)c1",
    "comparison operator": "=",
    "CC50 [µM]": 88.7
  },
  {
    "cpd smiles": "Cc1cc(C)cc(C(=O)c2c(C(=O)NCc3ccc(CO)cc3)[nH]c3ccc(Cl)cc23)c1",
    "comparison operator": "=",
    "CC50 [µM]": 7.97
  }
]
